Origin of the recorded values: PubChem BioAssay (Tox21)

- system: D(2) dopamine receptor (Homo sapiens)
- testDetails: Dopamine D2 receptor (DRD2) small molecule antagonists, cell-based qHTS assay (AID 1963595)
- conditionParameters: HEK293-DRD2 cAMP HTRF antagonist mode; series mostly up to 92.4 µM
Results filed as inconclusive are left out. Calls of active or inactive are those of the source. Calls follow the shape of the dose curve; as a rule, active = well fitted inhibition curve with a large enough effect in the signal ratio in the repeat runs, with a control signal flat; inconclusive = weak or mixed curves, or effect the other way; inactive = flat fitted curve, though single readings scatter; the % refers to the signal ratio.
Outcome codes: active, inactive

{"compound": "OC(c1ccc(Cl)cc1)(c1ccc(Cl)cc1)c1cccnc1", "system": "D(2) dopamine receptor (Homo sapiens)", "assignedClass": "inactive"}
{"compound": "C#CC(O)(C=CCl)CC (stereo not given)", "system": "D(2) dopamine receptor (Homo sapiens)", "assignedClass": "inactive"}
{"compound": "CCOC(=O)/C=C(C)/C=C/C[C@@H](C)CCCC(C)C", "system": "D(2) dopamine receptor (Homo sapiens)", "assignedClass": "inactive"}
{"compound": "CC(C)(C)N(NC(=O)c1ccc(Cl)cc1)C(=O)c1ccccc1", "system": "D(2) dopamine receptor (Homo sapiens)", "assignedClass": "inactive"}
{"compound": "CC(C)CC(C)N (stereo not given)", "system": "D(2) dopamine receptor (Homo sapiens)", "assignedClass": "inactive"}
{"compound": "CC(C)[C@]12CC(=O)[C@H](C)[C@H]1C2", "system": "D(2) dopamine receptor (Homo sapiens)", "assignedClass": "inactive"}
{"compound": "CCCCCCCC(=O)Cl", "system": "D(2) dopamine receptor (Homo sapiens)", "assignedClass": "inactive"}
{"compound": "CCc1ccc(C(=O)NN(C(=O)c2cc(C)cc(C)c2)C(C)(C)C)cc1", "system": "D(2) dopamine receptor (Homo sapiens)", "assignedClass": "inactive"}
{"compound": "CCCCCCCCCCCCCN1CC(C)OC(C)C1 (stereo not given)", "system": "D(2) dopamine receptor (Homo sapiens)", "assignedClass": "inactive"}
{"compound": "O=C1CCCCC1Cl (stereo not given)", "system": "D(2) dopamine receptor (Homo sapiens)", "assignedClass": "inactive"}
{"compound": "C[C@@H]1C[C@@H]([C@H](O)CC2CC(=O)NC(=O)C2)C(=O)[C@@H](C)C1", "system": "D(2) dopamine receptor (Homo sapiens)", "assignedClass": "inactive"}
{"compound": "CCOP(=S)(OCC)Oc1cc(-c2ccccc2)on1", "system": "D(2) dopamine receptor (Homo sapiens)", "assignedClass": "inactive"}
{"compound": "COc1cc(C=O)cc2c1[C@H](COC(N)=O)[C@]1(OC(C)=O)ON2C[C@H]2[C@@H]1N2C(C)=O", "system": "D(2) dopamine receptor (Homo sapiens)", "assignedClass": "inactive"}
{"compound": "CC(C1CC1)C(O)(Cn1cncn1)c1ccc(Cl)cc1 (stereo not given)", "system": "D(2) dopamine receptor (Homo sapiens)", "assignedClass": "inactive"}
{"compound": "CCCN(CCC)C(=O)Cc1c(-c2ccc(Cl)cc2)nc2ccc(Cl)cn12", "system": "D(2) dopamine receptor (Homo sapiens)", "assignedClass": "inactive"}
{"compound": "CCN[C@@H](C)Cc1cccc(C(F)(F)F)c1", "system": "D(2) dopamine receptor (Homo sapiens)", "assignedClass": "inactive"}
{"compound": "CCN(CCO)CCn1c(Cc2ccccc2)nc2c1c(=O)n(C)c(=O)n2C", "system": "D(2) dopamine receptor (Homo sapiens)", "assignedClass": "inactive"}
{"compound": "O=C(NC(O)C(Cl)(Cl)Cl)NC(O)C(Cl)(Cl)Cl (stereo not given)", "system": "D(2) dopamine receptor (Homo sapiens)", "assignedClass": "inactive"}
{"compound": "Oc1cc(Cl)c(Cl)c(Cl)c1", "system": "D(2) dopamine receptor (Homo sapiens)", "assignedClass": "inactive"}
{"compound": "Nc1ccc(N=Nc2ccccc2)cc1", "system": "D(2) dopamine receptor (Homo sapiens)", "assignedClass": "inactive"}
{"compound": "CNC(=O)Oc1cc(C)cc(C(C)C)c1", "system": "D(2) dopamine receptor (Homo sapiens)", "assignedClass": "inactive"}
{"compound": "COc1cccc(C(=O)NN(C(=O)c2cc(C)cc(C)c2)C(C)(C)C)c1C", "system": "D(2) dopamine receptor (Homo sapiens)", "assignedClass": "inactive"}
{"compound": "Cc1ccc(-c2c(Cl)nc(C#N)n2S(=O)(=O)N(C)C)cc1", "system": "D(2) dopamine receptor (Homo sapiens)", "assignedClass": "inactive"}
{"compound": "CNC(=O)Oc1cc(C)c(N(C)C)c(C)c1", "system": "D(2) dopamine receptor (Homo sapiens)", "assignedClass": "inactive"}
{"compound": "CCOP(=S)(S)OCC", "system": "D(2) dopamine receptor (Homo sapiens)", "assignedClass": "inactive"}
{"compound": "C=CC(=O)[O][Sn]([CH2]CCC)([CH2]CCC)[CH2]CCC", "system": "D(2) dopamine receptor (Homo sapiens)", "assignedClass": "active"}
{"compound": "CCC1(c2cccc(O)c2)CCCCN(C)C1 (stereo not given)", "system": "D(2) dopamine receptor (Homo sapiens)", "assignedClass": "inactive"}
{"compound": "CCN1CCC2(CC1)COc1cc3c(cc12)N(C(=O)c1ccc(-c2ccc(-c4nnc(C)o4)cc2C)cc1)CC3", "system": "D(2) dopamine receptor (Homo sapiens)", "assignedClass": "inactive"}
{"compound": "CCCCCCBr", "system": "D(2) dopamine receptor (Homo sapiens)", "assignedClass": "inactive"}
{"compound": "CCSC(=O)Cl", "system": "D(2) dopamine receptor (Homo sapiens)", "assignedClass": "inactive"}
{"compound": "CCC1(c2ccccc2)C(=O)N=C(O)NC1=O (stereo not given)", "system": "D(2) dopamine receptor (Homo sapiens)", "assignedClass": "inactive"}
{"compound": "Clc1cc(Cl)c(Cl)c(Cl)c1", "system": "D(2) dopamine receptor (Homo sapiens)", "assignedClass": "inactive"}
{"compound": "COP(=S)(OC)Oc1ccc([N+](=O)[O-])cc1Cl", "system": "D(2) dopamine receptor (Homo sapiens)", "assignedClass": "inactive"}
{"compound": "O=[N+]([O-])c1ccc(CCl)cc1", "system": "D(2) dopamine receptor (Homo sapiens)", "assignedClass": "inactive"}
{"compound": "CCOP(=O)(NC(C)C)Oc1ccc(SC)c(C)c1 (stereo not given)", "system": "D(2) dopamine receptor (Homo sapiens)", "assignedClass": "inactive"}
{"compound": "CC(=O)c1cc(C(C)(C)C)cc2c1CCC2(C)C", "system": "D(2) dopamine receptor (Homo sapiens)", "assignedClass": "inactive"}
{"compound": "CCCSP(=S)(OCC)Oc1ccc(SC)cc1 (stereo not given)", "system": "D(2) dopamine receptor (Homo sapiens)", "assignedClass": "inactive"}
{"compound": "C=CC(=O)OCC", "system": "D(2) dopamine receptor (Homo sapiens)", "assignedClass": "inactive"}
{"compound": "O=C1NC(=O)C(=O)C(=O)N1", "system": "D(2) dopamine receptor (Homo sapiens)", "assignedClass": "inactive"}
{"compound": "CC(=O)[O-].CC(=O)[O-].O.O.[Zn+2]", "system": "D(2) dopamine receptor (Homo sapiens)", "assignedClass": "inactive"}
{"compound": "Cc1c(Cl)c(=O)oc2cc(OP(=O)(OCCCl)OCCCl)ccc12", "system": "D(2) dopamine receptor (Homo sapiens)", "assignedClass": "inactive"}
{"compound": "c1ccc(OCC2CO2)cc1 (stereo not given)", "system": "D(2) dopamine receptor (Homo sapiens)", "assignedClass": "inactive"}
{"compound": "N#CCc1ccc(Cl)cc1", "system": "D(2) dopamine receptor (Homo sapiens)", "assignedClass": "inactive"}
{"compound": "O=C(O)C1(c2ccc3c(c2)OC[C@H](Cc2ccc(-c4ccccc4)cc2)[C@H]3O)CCCC1", "system": "D(2) dopamine receptor (Homo sapiens)", "assignedClass": "inactive"}
{"compound": "NCCc1cc(O)c(O)cc1O", "system": "D(2) dopamine receptor (Homo sapiens)", "assignedClass": "inactive"}
{"compound": "C1CCNCC1", "system": "D(2) dopamine receptor (Homo sapiens)", "assignedClass": "inactive"}
{"compound": "C=CCOC(C)=O", "system": "D(2) dopamine receptor (Homo sapiens)", "assignedClass": "inactive"}
{"compound": "C=COC(C)=O", "system": "D(2) dopamine receptor (Homo sapiens)", "assignedClass": "inactive"}
{"compound": "CCC(C)c1cccc(C(C)CC)c1O (stereo not given)", "system": "D(2) dopamine receptor (Homo sapiens)", "assignedClass": "inactive"}
{"compound": "CCOC(=O)OC1=C(c2cc(C)ccc2C)C(=O)NC12CCC(OC)CC2 (stereo not given)", "system": "D(2) dopamine receptor (Homo sapiens)", "assignedClass": "inactive"}
{"compound": "N#Cc1ccc(N(CC(N)=O)CC(F)(F)F)cc1C(F)(F)F", "system": "D(2) dopamine receptor (Homo sapiens)", "assignedClass": "inactive"}
{"compound": "CS/C(C)=N/OC(=O)N(C)SN(C)C(=O)O/N=C(\\C)SC", "system": "D(2) dopamine receptor (Homo sapiens)", "assignedClass": "inactive"}
{"compound": "NNCc1ccccc1", "system": "D(2) dopamine receptor (Homo sapiens)", "assignedClass": "inactive"}
{"compound": "Cc1ccccc1CO[C@@H]1C[C@@]2(C(C)C)CC[C@]1(C)O2", "system": "D(2) dopamine receptor (Homo sapiens)", "assignedClass": "inactive"}
{"compound": "CC(C)(C)OO", "system": "D(2) dopamine receptor (Homo sapiens)", "assignedClass": "inactive"}
